- protocol.description: MTT cell viability assay in C2C12 myoblasts
- condition.set: mouse
measured.quantity: viability at 48 h (%)
Just the number in %, nothing appended.

Note to self: viability at 48 h recorded for CC1=C(O)C(=O)C=C2C1=CC=C1[C@@]2(C)CC[C@@]2(C)[C@@H]3C[C@](C)(C(=O)O)CC[C@]3(C)CC[C@]12C was 83.9

* * *

- Test system: NF-κB
- protocol.description: TNF-α induced NF-κB luciferase reporter assay in C2C12 myoblasts
- Assay type: cell-based
- condition.set: myoblasts and myotubes
measured.quantity: NF-κB inhibition in myocytes, myoblasts and myotubes together

Cc1ccc(=O)n(-c2ccccc2)c1 :: mostly ineffective
O=C(O[C@@H]1Cc2c(O)cc(O)cc2O[C@@H]1c1cc(O)c(O)c(O)c1)c1cc(O)c(O)c(O)c1 [EGCG, Epigallocatechin gallate] :: mostly ineffective
